Entry source: patent US11708318B2

- Protocol notes: Solubility assessment of Sample 1 (majorly Form 1) in 24 solvent systems
- Assay type: physicochemical
- Protocol conditions: methanol, 50 °C, organic solvent or mixture, thermodynamic from solid, Methanol; sample ID A20; read-out: Solubility assessment 10 vol.
Parameter measured: solubility

                            chemical_smiles   reported_value
0  CCNCCc1ccc(CN(CC)c2cc(OC)ccc2[C@@H]2CCc3cc(O)ccc3C2)cc1.Cl.Cl  50 to 100 mg/mL

----------
- Protocol notes: Solubility assessment of Sample 1 (majorly Form 1) in 24 solvent systems
- Format: physicochemical
- Protocol conditions: toluene, organic solvent or mixture, thermodynamic from solid, Toluene; sample ID A15; read-out: Solubility assessment 60 vol.
Parameter measured: solubility

>>> print(df.to_string())
                            chemical_smiles  reported_value
0  CCNCCc1ccc(CN(CC)c2cc(OC)ccc2[C@@H]2CCc3cc(O)ccc3C2)cc1.Cl.Cl    < 16.7 mg/mL

----------
- Protocol notes: Solubility assessment of Sample 1 (majorly Form 1) in 24 solvent systems
- Format: physicochemical
- Protocol conditions: dichloromethane, organic solvent or mixture, thermodynamic from solid, Dichloromethane; sample ID A18; read-out: Solubility assessment 60 vol.
- Experimental: Solubility assessment was carried out on the Sample 1 of RAD1901-2HCl (majorly Form 1 shown by XRPD) in 24 solvent systems in HPLC vials (sample IDs: A1 to A24). […] After each addition of solvent, the system was stirred for 5 to 10 minutes at 25° C., then shaken at 50° C. for 5 to 10 minutes, and observations made. […] All solids recovered from maturation, cooling and evaporation experiments were analyzed by high resolution XRPD.
Parameter measured: solubility

>>> df
                            chemical_smiles  reported_value
0  CCNCCc1ccc(CN(CC)c2cc(OC)ccc2[C@@H]2CCc3cc(O)ccc3C2)cc1.Cl.Cl    < 16.7 mg/mL

----------
- Protocol notes: Solubility assessment of Sample 1 (majorly Form 1) in 24 solvent systems
- Type: physicochemical
- Protocol conditions: ethanol, 50 °C, organic solvent or mixture, thermodynamic from solid, Ethanol; sample ID A10; read-out: Solubility assessment 10 vol.
- Procedure: Solubility assessment was carried out on the Sample 1 of RAD1901-2HCl (majorly Form 1 shown by XRPD) in 24 solvent systems in HPLC vials (sample IDs: A1 to A24). […] After each addition of solvent, the system was stirred for 5 to 10 minutes at 25° C., then shaken at 50° C. for 5 to 10 minutes, and observations made. […] All solids recovered from maturation, cooling and evaporation experiments were analyzed by high resolution XRPD.
Parameter measured: solubility

                            chemical_smiles  parameter_measured  reported_value
0  CCNCCc1ccc(CN(CC)c2cc(OC)ccc2[C@@H]2CCc3cc(O)ccc3C2)cc1.Cl.Cl          solubility     < 100 mg/mL

----------
- Protocol notes: Solubility assessment of amorphous RAD1901-2HCl in water/organic solvent system
- Assay type: physicochemical
- Protocol conditions: EtOH/H2O (99:1), organic solvent or mixture, thermodynamic from solid, EtOH/H2O (99:1); sample ID C4; read-out: Solubility assessment 10 vol.
Parameter measured: solubility

>>> print(df.to_string())
                                   molecule  reported_value
0  CCNCCc1ccc(CN(CC)c2cc(OC)ccc2[C@@H]2CCc3cc(O)ccc3C2)cc1.Cl.Cl [amorphous RAD1901-2HCl]     < 100 mg/mL
